Reported LD50 by item:
Assay: Acute Toxicity Test (LD50)
Settings: in vivo
Number only, in mg/kg; omit the unit.

Sample records with LD50:
                              smiles_record  test_result
0  O=C(NCNC(=O)n1cc(F)c(=O)[nH]c1=O)c1ccccc1          240
1  O=C(Nc1ccc[n+]([O-])c1)n1cc(F)c(=O)[nH]c1=O          240
2  O=C(NCCCCC[n+]1ccccc1)n1cc(F)c(=O)[nH]c1=O           60
3  CN(C)CCCNC(=O)NCCCCCCNC(=O)n1cc(F)c(=O)[nH]c1=O          120
4  O=C(NCCC[n+]1ccccc1)n1cc(F)c(=O)[nH]c1=O          240

IN: Return reported LD50; argument: `O=C(NCC[n+]1ccccc1)n1cc(F)c(=O)[nH]c1=O`
OUT: 120
